Target: human HSL (Homo sapiens)
Construct: generate a full length human HSL ORF with a 3′-His6 tag
Sequence (Q05469 1-1076): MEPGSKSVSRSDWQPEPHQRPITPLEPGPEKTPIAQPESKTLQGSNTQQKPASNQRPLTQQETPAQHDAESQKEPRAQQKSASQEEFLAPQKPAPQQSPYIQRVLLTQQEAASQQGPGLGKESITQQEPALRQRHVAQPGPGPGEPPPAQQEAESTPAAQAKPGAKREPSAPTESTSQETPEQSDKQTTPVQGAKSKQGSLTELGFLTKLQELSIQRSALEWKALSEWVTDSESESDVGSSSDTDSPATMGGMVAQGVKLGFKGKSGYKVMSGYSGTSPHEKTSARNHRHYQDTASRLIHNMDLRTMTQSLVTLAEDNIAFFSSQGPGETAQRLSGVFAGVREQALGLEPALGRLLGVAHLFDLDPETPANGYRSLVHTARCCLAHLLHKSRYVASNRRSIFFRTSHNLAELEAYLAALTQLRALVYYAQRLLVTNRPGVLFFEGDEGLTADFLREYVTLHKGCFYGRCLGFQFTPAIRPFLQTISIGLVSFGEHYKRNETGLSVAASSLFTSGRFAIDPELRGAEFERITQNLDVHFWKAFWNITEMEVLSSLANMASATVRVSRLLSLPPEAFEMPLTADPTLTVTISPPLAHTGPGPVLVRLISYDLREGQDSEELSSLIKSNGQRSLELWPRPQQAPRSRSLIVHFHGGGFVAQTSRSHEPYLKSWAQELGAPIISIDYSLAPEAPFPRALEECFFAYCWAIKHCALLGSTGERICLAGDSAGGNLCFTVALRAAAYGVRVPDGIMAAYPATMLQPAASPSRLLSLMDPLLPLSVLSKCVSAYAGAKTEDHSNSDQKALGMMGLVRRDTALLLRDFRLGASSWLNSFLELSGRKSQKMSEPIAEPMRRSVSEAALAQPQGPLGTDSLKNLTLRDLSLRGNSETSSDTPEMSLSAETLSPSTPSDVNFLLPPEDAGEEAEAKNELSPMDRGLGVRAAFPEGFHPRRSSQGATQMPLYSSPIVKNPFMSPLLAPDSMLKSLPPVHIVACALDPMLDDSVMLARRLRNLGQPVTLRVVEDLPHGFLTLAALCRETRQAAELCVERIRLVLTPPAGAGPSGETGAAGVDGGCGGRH
Test: Human Hormone-Sensitive Lipase (HSL) enzyme inhibition assay (colorimetric, DMPT substrate)
Details: human full length HSL-His6, 2,3-dimercapto-1-propanol tributyrate substrate, 37° C. 20 minutes, absorbance at 405 nm; read-out: HSL hum IC50
Protocol: Production of Human Full Length Hormone Sensitive Lipase-His^6: 1) Cloning: cDNA was prepared from commercial human brain polyA+ RNA and used as a template in overlapping PCR to generate a full length human HSL ORF with a 3′-His6 tag. […] The protein concentration was calculated from absorbance at 280 nm, using 280=0.67 cm-1 mg-1. […] HSL enzyme activity was measured by a colorimetric assay using 2,3-dimercapto-1-propanol tributyrate (Aldrich, St. Louis, Mo.) as a substrate. […]
Just a reminder that ties go to Not satisfied: only IC50 strictly below 30 nM counts as Satisfied.

Consider the molecule CC(C)Oc1ccc(N2CC[C@]3(CC[C@@](O)(c4cnn[nH]4)CC3)C2=O)cc1 [Example 374] . Is its IC50 strictly less than 30 nM?
Not satisfied

Consider the molecule CCC[C@]1(O)CC[C@]2(CCN(c3ccc(C(O)C(C)(F)F)cc3)C2=O)CC1 (stereo partly shown) [Example 192] . Is its IC50 strictly less than 30 nM?
Not satisfied

Consider the molecule O=C1N(c2ccc(C3CC(F)(F)C3)cc2)CC[C@]12CC[C@@](O)(C(F)(F)F)CC2 [Example 340] . Is its IC50 strictly less than 30 nM?
Not satisfied

Consider the molecule O=C1N(c2ccc(OC(F)(F)F)cc2)CC[C@]12CC[C@@](O)(C(F)(F)F)CC2 [Example 112] . Is its IC50 strictly less than 30 nM?
Satisfied

Consider the molecule CC[C@]1(O)CC[C@]2(CCN(c3ccc(C(C)(C)COC)cc3)C2=O)CC1 [Example 131] . Is its IC50 strictly less than 30 nM?
Not satisfied

Consider the molecule CC(C)(O)CNC(=O)O[C@H]1CC[C@@]2(CCN(c3ccc(OC(F)(F)F)cc3)C2=O)CC1 [Example 26] . Is its IC50 strictly less than 30 nM?
Not satisfied

Consider the molecule CS(=O)(=O)C[C@]1(O)CC[C@]2(CCN(c3ccc(OCC(F)(F)F)cc3)C2=O)CC1 [Example 304] . Is its IC50 strictly less than 30 nM?
Not satisfied

----------
molecular target: human HSL (Homo sapiens, UniProt Q05469); construct: generate a full length human HSL ORF with a 3′-His6 tag; experiment: Human Hormone-Sensitive Lipase (HSL) enzyme inhibition assay (colorimetric, DMPT substrate); settings: human full length HSL-His6, 2,3-dimercapto-1-propanol tributyrate substrate, 37° C. 20 minutes, absorbance at 405 nm; read-out: HSL hum IC50
pIC50: −log10 of the molar value.
Lab note: compare pIC50 against 7. Equal or greater, write class 1. Smaller, write class 0.

Observe how each entry below is paired with its result.
O=C1N(c2ccc(C3CC3)cc2)CC[C@]12CC[C@H](O)CC2 :: class 0
CC(C)(C)c1ccc(N2CC[C@]3(CC[C@@](O)(C(F)(F)F)CC3)C2=O)cc1 :: class 1
COCCc1ccc(N2CC[C@]3(CC[C@@](O)(C(C)C)CC3)C2=O)cc1 :: class 1
COC[C@]1(O)CC[C@]2(CCN(c3ccc(CC(F)(F)F)cc3)C2=O)CC1 :: class 1
COc1ccc(N2CC[C@]3(CC[C@H](OCc4ccccc4)CC3)C2=O)cc1 :: class 0

Quick check: does "CC(C)S(=O)(=O)C[C@]1(O)CC[C@]2(CCN(c3ccc(OCC(F)(F)F)cc3)C2=O)CC1" have pIC50 greater than or equal to 7?
class 1

Quick check: does "CCc1ccc(N2CC[C@]3(CC[C@](O)(COc4ccccc4)CC3)C2=O)cc1" have pIC50 greater than or equal to 7?
class 0

Quick check: does "C=C(C)[C@]1(O)CC[C@@]2(CCN(c3ccc(OCC(F)(F)F)cc3)C2=O)CC1" have pIC50 greater than or equal to 7?
class 0

Quick check: does "CCCC[C@]1(O)CC[C@]2(CCN(c3ccc([C@@H](O)C(F)(F)F)cc3)C2=O)CC1" have pIC50 greater than or equal to 7?
class 1

Quick check: does "CC(C)Oc1ccc(N2CC[C@]3(CC[C@@](O)(c4ccn(C)n4)CC3)C2=O)cc1" have pIC50 greater than or equal to 7?
class 1

Quick check: does "COc1ccc(N2CC[C@]3(CC[C@@H](Oc4ccccc4)CC3)C2=O)cc1" have pIC50 greater than or equal to 7?
class 0

Quick check: does "C[C@H](Oc1ccc(N2CC[C@]3(CC[C@@](O)(COCC(F)F)CC3)C2=O)cn1)C(F)(F)F" have pIC50 greater than or equal to 7?
class 1

Quick check: does "CCC[C@]1(O)CC[C@@]2(CCN(c3ccc(OS(C)(=O)=O)cc3)C2=O)CC1" have pIC50 greater than or equal to 7?
class 1

Quick check: does CCC(O)[C@H]1CC[C@]2(CCN(c3ccc(O[C@H](C)C(F)(F)F)cc3)C2=O)CC1 (some centres unmarked) have pIC50 greater than or equal to 7?
class 0

----------
target: human HSL (Homo sapiens); construct: generate a full length human HSL ORF with a 3′-His6 tag; assay: Human Hormone-Sensitive Lipase (HSL) enzyme inhibition assay (colorimetric, DMPT substrate); conditions: human full length HSL-His6, 2,3-dimercapto-1-propanol tributyrate substrate, 37° C. 20 minutes, absorbance at 405 nm; read-out: HSL hum IC50
Just a reminder that ties go to no: only IC50 strictly below 20 nM counts as yes.

Observe how each entry below is paired with its result.
CN(C)C(=O)C[C@]1(O)CC[C@]2(CCN(c3ccc(OCC(F)(F)F)cc3)C2=O)CC1 [Example 157] :: no
CC(C)(C)c1ccc(N2CCC3(CCC(C(O)(O)C(F)(F)F)CC3)C2=O)cc1 (stereo not shown) [Example 362] :: yes
O=C1N(c2ccc([C@@H](O)C(F)(F)F)cc2)CC[C@]12CC[C@@](O)(COCC(F)(F)F)CC2 [Example 155] :: yes
COC[C@]1(O)CC[C@]2(CCN(c3ccc(C4CC4)cc3)C2=O)CC1 [Example 223] :: no
CCC[C@]1(O)CC[C@]2(CCN(c3ccc(C(O)C(F)(F)F)cc3)C2=O)CC1 (mixture of isomers) [Example 133] :: no
CCc1ccc(CCN2CC[C@]3(CC[C@H](O)CC3)C2=O)cc1 [Example 34] :: no

Alright, here's another molecule for you.
Consider the molecule CCc1ccc(N2CC[C@]3(CC[C@H](O)CC3)C2=O)cc1 [Example 32] . Is its IC50 strictly less than 20 nM?
no

Every entry's value here was drawn from patent US8440710B2.
